- Test system: EKVX NSCLC
- ASSAY PROCEDURE: NCI-60 one-dose screen, 48 h (100 = growth as untreated, 0 = no growth, -100 = all killed)
- DETAILS: 10 µM
Compounds without any hit were thinned out: in the full panel of roughly 83,000, 20% have a hit.
Could you please report measured growth for the items listed next?
Numbers only, in %.

Below are worked cases with known answers.
* Nc1nc(N)c2[nH]cnc2n1 | 97.5
* CCCCOC(=O)/C=C\C(=O)NC(N)=O | 95

// for each compound in input: emit growth
1. Nc1cc(N)c(N)cc1N
2. COc1ccc2cc1Oc1ccc(cc1)C[C@H]1c3cc(c(OC)cc3CCN1C)Oc1c(OC)c(OC)cc3c1[C@H](C2)N(C)CC3
3. CC1CCC2(OC1)OC1CC3C4CC=C5CC(O)CCC5(C)C4CCC3(C)C1C2C (configuration not stated)
4. CCN(CCNS(C)(=O)=O)c1ccc(N)c(C)c1

Response:
[57.5, 80.5, 96.6, 88.9]

// for each compound in input: emit growth
1. CN(C)CC1CCCCCC(CN(C)C)C1=O (configuration not stated)
2. N#CC(C#N)N=Nc1ccc(Cl)cc1
3. O=C1C=C(Nc2ccccc2)c2ccccc2C1=O
4. CC1CCC(C(C)C)C(NNC(N)=O)C1 (configuration not stated)
5. Cc1cc(-c2ccc(N=Nc3ccc4c(S(=O)(=O)O)cc(S(=O)(=O)O)c(N)c4c3O)c(C)c2)ccc1N=Nc1ccc2c(S(=O)(=O)O)cc(S(=O)(=O)O)c(N)c2c1O

Response:
111
77
99.8
101
86.6

Query: Need growth, item NN1CCOC(c2ccccc2)C1 (configuration not stated)
Response: 115
